Data provenance: the supplement of paper PMC10567573

B1: CAMK2B (parent)
chain: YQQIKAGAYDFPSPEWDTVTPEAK

- Variants of: B1
- procedure-details: protein stability index of a GFP-peptide fusion (GPS, HEK-293T) (PSI 1-6); higher = more stable;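 also: lentivirally expressed fusions sorted by FACS into six bins by GFP to DsRed ratio, PSI derived from sequencing read proportions per bin multiplied by bin number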
- experimental-setup: c terminus: a fixed tail appended
quantity: protein stability index

Use the examples below as a reference point.
protein stability index for `P12K` ? 3.3

Same again, this time with `Q2F` 3.46

Same again, this time with `D17I` 2.76

Same again, this time with `A23G` 3.94

Same again, this time with `F11Y` 3.95

Others:
protein stability index for `A23H` ? 3.92

Same again, this time with `K5R` 3.34

Same again, this time with `P14D` 4.42

Same again, this time with `W16I` 4.2

Same again, this time with `E15P` 2.77
